- System: BT-549 breast
- assay_info: NCI-60 one-dose screen, 48 h
- condition_notes: 10 µM unless noted
The panel holds about 83,000 compounds, 20% with a hit somewhere; the sample as a whole holds those more often. Activity calls are given as the source filed them. Rule for the calls: active = growth percent below 10; inactive = the rest.
Your response should consist of one outcome taken from active, inactive

>>> classification("C=C1C(=O)O[C@H]2[C@H]1CC/C(COC(=O)NCc1ccc(Cn3c(=O)sn(CCCCC)c3=O)cc1)=C\\CC[C@@]1(C)O[C@@H]21")
"inactive"
>>> classification("CC1CCN(S(=O)(=O)c2ccc(S(=O)(=O)N3CCCC(c4nc5c(nnn5Cc5cccc(Cl)c5)c(=O)[nH]4)C3)cc2)CC1 (configuration not stated)")
"inactive"

Data request: So what was the verdict on O=C(Nc1ccccc1O)c1ccc(CNC(=O)c2sccc2Nc2ccnc(C(F)(F)F)c2)cc1 in this test?
Data returned: inactive

Data request: Would you kindly repeat that for CCN(CC)CCn1c2ccc(O)cc2c2sc3cc(O)ccc3c(=O)c21 ?
Data returned: inactive

Data request: # repeat for CC(=O)O[C@@H]1C[C@]2(C(C)C)O[C@@]1(C)[C@@H]1CCC(C)=C1[C@@H]2OC(=O)/C=C/c1ccccc1
Data returned: inactive

Data request: Also CCN(CC)CCn1c2ccc(OC)cc2c2sc3cc(OC)ccc3c(=O)c21 , if possible.
Data returned: inactive

Data request: Next: COc1ccc(C(=O)c2cc3c(N)c(C(=O)Nc4ccc(C)cc4)sc3nc2C)cc1
Data returned: inactive
